Attribution: patent US6168954A

# assay_protocol: GST conjugation activity with CDNB (HPLC)
# Format: biochemical
# test_settings: 0.4 mM electrophilic substrate, 4 mM glutathione, 0.1 M MOPS pH 7.0, corrected for uncatalyzed reaction
outcome_measure: Activity of soybean GST enzyme, CDNB

>>> obs_value("ssl.pk0005.e6: soybean type III GST encoded by cDNA insert in clone ss1.pk0005.e6 (protein) MTDEVVLLDFWPSPFGMRVRIALAEKGIEYEYKEEDLRNKSPLLLQMNPVHKKIPVLIHNGKPISESLIAVQYIEEVWNDRNPLLPSDPYQRAQARFWADYVDIKIHDLGKKIWTSKGEEKEAAKKEFIEALKLLEEQLGDKTYFGGDNIGFVDIALVPFYTWFKVYETFGSLNIENECPRFVAWAKRCLQKESVAKSLPDQHKVYEFVVEIRKKLVIE")
"2030 nmol/min/mg"
